The measured values listed here are drawn from patent US12180193B2.

Could you please report measured DC50 for the items listed next?
biological target: BRAF V600E (Homo sapiens, UniProt P15056, V600E); construct: expressed in transfected cells; assay: Cellular assay of target protein degradation, T-Rex 293 cells stably transfected with HA-BRAF_V600E (HA immunofluorescence, high content imaging); type: cell-based; conditions: half maximal degradation, T-Rex 293 HA-BRAF V600E; read-out: BRaf V600E DC50
Sequence (P15056 whole entry V600E): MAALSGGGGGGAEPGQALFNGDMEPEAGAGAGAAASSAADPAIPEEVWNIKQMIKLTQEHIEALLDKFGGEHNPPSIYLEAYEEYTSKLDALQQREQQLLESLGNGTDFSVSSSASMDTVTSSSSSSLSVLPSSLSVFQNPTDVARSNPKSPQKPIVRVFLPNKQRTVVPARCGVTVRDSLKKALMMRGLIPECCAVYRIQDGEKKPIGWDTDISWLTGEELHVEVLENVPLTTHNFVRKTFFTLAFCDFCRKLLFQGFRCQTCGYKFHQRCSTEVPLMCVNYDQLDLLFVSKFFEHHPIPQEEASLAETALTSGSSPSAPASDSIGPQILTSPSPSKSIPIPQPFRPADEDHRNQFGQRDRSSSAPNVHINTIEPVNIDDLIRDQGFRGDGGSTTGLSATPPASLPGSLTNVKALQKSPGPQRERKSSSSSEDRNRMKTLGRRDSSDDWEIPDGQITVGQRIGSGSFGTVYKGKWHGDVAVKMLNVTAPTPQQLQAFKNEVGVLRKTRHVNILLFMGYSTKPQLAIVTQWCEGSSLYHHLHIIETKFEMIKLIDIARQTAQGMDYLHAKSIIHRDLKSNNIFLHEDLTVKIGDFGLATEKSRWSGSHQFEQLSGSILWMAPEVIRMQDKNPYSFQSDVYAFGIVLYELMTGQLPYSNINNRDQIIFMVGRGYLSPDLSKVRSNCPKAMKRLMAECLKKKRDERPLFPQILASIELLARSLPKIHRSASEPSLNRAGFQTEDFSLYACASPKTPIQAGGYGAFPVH

Determine from records and report DC50 for O=C1CCC(N2Cc3cc(N4CCC(CCCN5CCN(c6ccc(-c7cnc8[nH]cc(C(=O)c9c(F)ccc(NS(=O)(=O)N%10CC[C@@H](F)C%10)c9F)c8c7)cc6)CC5)CC4)ccc3C2=O)C(=O)N1 (stereo partly drawn) [Compound 137]
5 to 50 nM

Determine from records and report DC50 for COc1ccc(NS(=O)(=O)N2CC[C@@H](F)C2)c(F)c1C(=O)c1c[nH]c2ncc(-c3ccc(N4CCC(CN5CCC(c6ccc7c(c6)CN(C6CCC(=O)NC6=O)C7=O)CC5)CC4)cc3)cc12 (stereo partly drawn) [Compound 269]
5 to 50 nM

Determine from records and report DC50 for COc1cc(C2CCN(CC3CCN(c4ncc(-c5cnc6[nH]cc(C(=O)c7c(F)ccc(NS(=O)(=O)N8CC[C@@H](F)C8)c7F)c6c5)cn4)CC3)CC2)cc2c1C(=O)N(C1CCC(=O)NC1=O)C2 (stereo partly drawn) [Compound 175]
5 to 50 nM

Determine from records and report DC50 for CC(C)CS(=O)(=O)Nc1ccc(F)c(C(=O)c2c[nH]c3ncc(-c4ccc(N5CCC(CN6CCC(c7ccc8c(c7)CN([C@H]7CCC(=O)NC7=O)C8=O)CC6)CC5)cc4)cc23)c1F [Compound 204]
< 5 nM

Determine from records and report DC50 for O=C1CC[C@H](N2Cc3cc(C4CCN(CC5CCN(c6ccc(-c7cnc8[nH]cc(C(=O)c9c(F)ccc(NS(=O)(=O)N%10CC[C@@H](O)C%10)c9F)c8c7)cc6)CC5)CC4)ccc3C2=O)C(=O)N1 [Compound 278]
5 to 50 nM

Determine from records and report DC50 for O=C1CC[C@H](N2Cc3cc(C4CCN(CC5CCN(c6ccc(-c7cnc8[nH]cc(C(=O)c9c(F)ccc(NS(=O)(=O)N%10CCC(F)(F)C%10)c9F)c8c7)cc6)CC5)CC4)ccc3C2=O)C(=O)N1 [Compound 232]
5 to 50 nM

Determine from records and report DC50 for O=C1CCC(N2Cc3cc(N4CCN(CCCCc5ccc(-c6cnc7[nH]cc(C(=O)c8c(F)ccc(NS(=O)(=O)N9CC[C@@H](F)C9)c8F)c7c6)cc5)CC4)ccc3C2=O)C(=O)N1 (stereo partly drawn) [Compound 317]
50 to 500 nM

Determine from records and report DC50 for O=C1CCC(N2Cc3cc(N4CCC(CN5CC(C6(c7ccc(-c8cnc9[nH]cc(C(=O)c%10c(F)ccc(NS(=O)(=O)N%11CC[C@@H](F)C%11)c%10F)c9c8)cc7)CC6)C5)CC4)ccc3C2=O)C(=O)N1 (stereo partly drawn) [Compound 316]
50 to 500 nM

Determine from records and report DC50 for O=C1CC[C@H](N2Cc3cc(N4CCC(OC5CCN(c6ccc(-c7cnc8[nH]cc(C(=O)c9c(F)ccc(NS(=O)(=O)N%10CC[C@@H](F)C%10)c9F)c8c7)cc6)CC5)CC4)ccc3C2=O)C(=O)N1 [Compound 34]
50 to 500 nM

###

target: BRAF G466V (Homo sapiens, UniProt P15056, G466V); construct: expressed in transfected cells; experiment: Cellular assay of target protein degradation, T-Rex 293 cells stably transfected with HA-BRAF G466V (HA immunofluorescence, high content imaging); assay type: cell-based; details: half maximal degradation, T-Rex 293 HA-BRAF G466V; read-out: BRaf G466V DC50
Sequence (P15056 whole entry G466V): as the sequence (P15056 whole entry V600E) above, with G466V, E600V counted along it
readout: DC50

Determine from records and report DC50 for O=C1CCC(N2Cc3cc(C4CCN(CCc5ccc(-c6cnc7[nH]cc(C(=O)c8c(F)ccc(NS(=O)(=O)N9CC[C@@H](F)C9)c8F)c7c6)cc5)[C@@H](CO)C4)ccc3C2=O)C(=O)N1 (stereo partly drawn)
1 to 10 nM

Determine from records and report DC50 for `CN(c1ncc(-c2cnc3[nH]cc(C(=O)c4c(F)ccc(NS(=O)(=O)N5CC[C@@H](F)C5)c4F)c3c2)cn1)C1CCN(CC2CCN(c3ccc4c(c3)CN([C@H]3CCC(=O)NC3=O)C4=O)CC2)CC1`
1 to 10 nM

Determine from records and report DC50 for O=C1CCC(c2ccc(C3CCN(CC4CCN(c5ccc(-c6cnc7[nH]cc(C(=O)c8c(F)ccc(NS(=O)(=O)N9CC[C@@H](F)C9)c8F)c7c6)cc5)CC4)CC3)cc2)C(=O)N1 (stereo partly drawn)
< 1 nM

Determine from records and report DC50 for `C[C@@]12CN(CC3CCN(c4ccc5c(c4)CN([C@@H]4CCC(=O)NC4=O)C5=O)CC3)C[C@@H]1CN(c1ccc(-c3cnc4[nH]cc(C(=O)c5c(F)ccc(NS(=O)(=O)N6CC[C@@H](F)C6)c5F)c4c3)cc1)C2`
1 to 10 nM

Determine from records and report DC50 for O=C1CCC(N2Cc3cc(OC[C@@H]4CCN4c4ccc(-c5cnc6[nH]cc(C(=O)c7c(F)ccc(NS(=O)(=O)N8CC[C@@H](F)C8)c7F)c6c5)cc4)ccc3C2=O)C(=O)N1 (stereo partly drawn)
> 30 nM

Determine from records and report DC50 for `O=C1CC[C@H](NC(=O)c2ccc(C3CCN(CC4CCN(c5ccc(-c6cnc7[nH]cc(C(=O)c8c(F)ccc(NS(=O)(=O)N9CC[C@@H](F)C9)c8F)c7c6)cc5)CC4)CC3)cc2F)C(=O)N1`
1 to 10 nM

Determine from records and report DC50 for O=C1CCC(N2Cc3cc(N4CC5(CC(CN6CCCc7cc(-c8cnc9[nH]cc(C(=O)c%10c(F)ccc(NS(=O)(=O)N%11CC[C@@H](F)C%11)c%10F)c9c8)ccc76)C5)C4)ccc3C2=O)C(=O)N1 (stereo partly drawn)
10 to 30 nM

Determine from records and report DC50 for O=C1CCC(N2Cc3cc(CCCCN4CC5(C4)CN(c4ccc(-c6cnc7[nH]cc(C(=O)c8c(F)ccc(NS(=O)(=O)N9CC[C@@H](F)C9)c8F)c7c6)cc4)C5)ccc3C2=O)C(=O)N1 (stereo partly drawn)
1 to 10 nM

Determine from records and report DC50 for `O=C1CC[C@H](NC(=O)c2ccc(N3CCN(CCN4CCN(c5ccc(-c6cnc7[nH]cc(C(=O)c8c(F)ccc(NS(=O)(=O)N9CC[C@@H](F)C9)c8F)c7c6)cc5)CC4)CC3)cc2F)C(=O)N1`
1 to 10 nM

Determine from records and report DC50 for O=C1CCC(N2Cc3cc(CN4CCN(c5ccc(-c6cnc7[nH]cc(C(=O)c8c(F)ccc(NS(=O)(=O)N9CC[C@@H](F)C9)c8F)c7c6)cc5)C[C@H]4CO)ccc3C2=O)C(=O)N1 (stereo partly drawn)
10 to 30 nM

Determine from records and report DC50 for CC1(N2Cc3cc(C4CCN(CC5CCN(c6ccc(-c7cnc8[nH]cc(C(=O)c9c(F)ccc(NS(=O)(=O)N%10CC[C@@H](F)C%10)c9F)c8c7)cc6)CC5)CC4)ccc3C2=O)CCC(=O)NC1=O (stereo partly drawn)
> 30 nM

Determine from records and report DC50 for O=C1CCC(N2Cc3cc(N4CCC(CN5CCC(Cc6ccc(-c7cnc8[nH]cc(C(=O)c9c(F)ccc(NS(=O)(=O)N%10CC[C@@H](F)C%10)c9F)c8c7)cc6)CC5)CC4)ccc3C2=O)C(=O)N1 (stereo partly drawn)
< 1 nM

Determine from records and report DC50 for `O=C1CC[C@@H](N2Cc3cc(N4CCN(CC5CCN(c6ccc(-c7cnc8[nH]cc(C(=O)c9c(F)ccc(NS(=O)(=O)N%10CC[C@@H](F)C%10)c9F)c8c7)cc6)CC5)CC4)ccc3C2=O)C(=O)N1`
1 to 10 nM

Determine from records and report DC50 for `CCCS(=O)(=O)Nc1ccc(F)c(C(=O)c2c[nH]c3ncc(-c4ccc(N5CCN(CC6CCN(c7ccc8c(c7)CN([C@H]7CCC(=O)NC7=O)C8=O)CC6)CC5)cc4)cc23)c1F`
1 to 10 nM

Determine from records and report DC50 for `CCc1c(NS(=O)(=O)N2CC[C@@H](F)C2)ccc(F)c1C(=O)c1c[nH]c2ncc(-c3ccc(N4CCC(CN5CCC(c6ccc7c(c6)CN([C@H]6CCC(=O)NC6=O)C7=O)CC5)CC4)cc3)cc12`
< 1 nM

Determine from records and report DC50 for `O=C1CC[C@@H](N2Cc3cc(C[C@H](O)CN4CCN(c5ccc(-c6cnc7[nH]cc(C(=O)c8c(F)ccc(NS(=O)(=O)N9CC[C@@H](F)C9)c8F)c7c6)cc5)CC4)ccc3C2=O)C(=O)N1`
1 to 10 nM

Determine from records and report DC50 for `O=C1CC[C@H](N2Cc3cc(N4CCC(CN5CCN(C6(c7ccc(-c8cnc9[nH]cc(C(=O)c%10c(F)ccc(NS(=O)(=O)N%11CC[C@@H](F)C%11)c%10F)c9c8)cn7)CC6)CC5)CC4)ccc3C2=O)C(=O)N1`
> 30 nM

Determine from records and report DC50 for `O=C1CC[C@H](N2Cc3cc(C4CCN(CC5CCN(c6ccc(-c7cnc8[nH]cc(C(=O)c9c(F)ccc(NS(=O)(=O)N%10CC[C@@H](O)C%10)c9F)c8c7)cc6)CC5)CC4)ccc3C2=O)C(=O)N1`
1 to 10 nM
